Entry source: patent US8008547B2

- measurement protocol: Standard protocol for determination of kcat and KM (continuous spectrophotometric assay, Acetyl CoA hydrolysis at 235 nm)
- Format: biochemical
- assay conditions: purified protein; about 23° C.; 20 mM HEPES pH 6.8, 10% ethylene glycol, 0.2 mM acetyl CoA
Checkbox rule: Kcat lower than 1 s⁻¹ = 1.0; Kcat not lower than 1 s⁻¹ = 0.0.

The examples below pair each entry with its known result.
# molecule, group
measured = [
    ("SEQ ID NO: 426: GAT polypeptide (protein, 9_18H2, GAT polypeptide) MIEVKPINAEDTYEIRHRILRPNQPLEACMYETDLLGGTFHLGGYYRGKLISIASFHQAEHPELVGQKQYQLRGMATLEGYREQKAGSTLIRHAEELLRKKGADLLWCNARTSASGYYKKLGFSEQGEVYDIPPVGPHILMYKKLT", 1.0),
    ("SEQ ID NO: 360: GAT polypeptide (protein, 3B_12D10, GAT polypeptide) MIEVKPINAEDTYEIRHRILRPNQPLEACMYETDLLGGAFHLGGYYRGKLISIASFHPAEHSELEGQKQYQLRGMATLEGYREQKAGSTLIRHAEELLRKKGADLLWCNARISASGYYEKLGFSEQGEVYDIPPIGPHILMYKKLT", 1.0),
    ("SEQ ID NO: 326: GAT polypeptide (protein, 15_10D6, GAT polypeptide) MIEVKPINAEDTYEIRHRILRPNQPLEACMYETDLLGGTFHLGGYYRGKLVSIASFHQAEHPELEGQKQYQLRGMATLEEYREQKAGSTLIRHAEELLRKKGADLLWCNARTSASGYYKKLGFSEQGEVYDIPPVGPHILMYKKLT", 0.0),
    ("SEQ ID NO: 300: GAT polypeptide (protein, 13_6D10, GAT polypeptide) MIEVKPINAEDTYEIRHRILRPNQPLEACMYETDSLGGTFHLGGYYRGKLISIASFNQAEHPELEGQKQYQLRGMATLEGYREQKAGSTLIRHAEELLRKKGADLLWCNARTSASGYYKKLGFSEQGEVYDTPPVGPHILMYKKLT", 0.0),
    ("SEQ ID NO: 319: GAT polypeptide (protein, 14_7A11, GAT polypeptide) MIEVKPINAEDTYEIRHRILRPNQPLEACKYETDLLRGAFHLGGYYRGKLVSIASFHQAEHPELEGLKQYQLRGMATLEGYREQKAGSTLIRHAEELLRKKGADLLWCNARTSASGYYKKLGFSEQGEVYDTPPTGPHILMYKKLT", 0.0),
    ("SEQ ID NO: 507: GAT polypeptide (protein, 8_1H9, GAT polypeptide) MLEVKPINAEDTYELRHKILRPNQPLEVCMYETDLLRGAFHLGGYYRGKLISIASFHQAEHSDLQGQKQYQLRGMATLEGYREQKAGSSLIRHAEEILRKRGADLLWCNARTSASGYYKKLGFSEQGEVFDTPPVGPHILMYKRLT", 0.0),
]

Q: Input SEQ ID NO: 312: GAT polypeptide (protein, 14_2B6, GAT polypeptide) MIEVKPINAEDTYEIRHRILRPNQPLEACKYETDLLGGTFHLGGYYRGKLISIASFNQAEHPELEGQKQYQLRGMATLEGYREQKAGSTLIRHAEELLRKKGADLLWCNARTSASGYYKKLGFSEQGGVYDIPPVGPHILMYKKLT ; condition: Kcat strictly below 1 s⁻¹. Does it hold?
A: 1.0

Q: Input SEQ ID NO: 501: GAT polypeptide (protein, 6_1H10, GAT polypeptide) MLEVKPINAEDTYELRHKILRPNQPLEVCMYETDLLRGAFHLGGFYGGKLISIASFHQAEHSDLQGQKQYQLRGMATLEGYRDQKAGSSLIRHAEEILRKRGADMLWCNARTSASGYYKKLGFSEQGEVFDTPPVGPHILMYKKIT ; condition: Kcat strictly below 1 s⁻¹. Does it hold?
A: 1.0

Q: Input SEQ ID NO: 290: GAT polypeptide (protein, 12_6A10, GAT polypeptide) MIEVKPINAEDTYEIRHRILRPNQPLEACKYETDLLGGTFHLGGYYRGKLVSIASFHQAEHPELEGQKQYQLRGMATLEGYREQKAGSTLIRHAEELLRKKGADLLWCNARTSASGYYKKLGFSEQGGVYDIPPVGPHILMYKKLT ; condition: Kcat strictly below 1 s⁻¹. Does it hold?
A: 1.0

Q: Input SEQ ID NO: 452: GAT polypeptide (protein, X: residue not identified in the source; ends and bridges not checked, GAT polypeptide) MIEVKPINAEDTYELRHKILRPNQPLEVCMYETDLLRGAFHLGGXYRGKLISIASFHQAEHSELQGQKQYQLRGMATLEGYRDQKAGSSLIKHAEQILRKRGADXLWCNARTSASGYYKKLGFSEQGEIFDTPPVGPHILMYKRLT ; condition: Kcat strictly below 1 s⁻¹. Does it hold?
A: 0.0

Q: Input SEQ ID NO: 424: GAT polypeptide (protein, 9_15D8, GAT polypeptide) MIEVKPINAEDTYEIRHRILRPNQPLEACMYETDLLGGTFHLGGYYRGKLVSIASFHQAEHPELEGQKQYQLRGMATLEGYREQKAGSTLIRHAEALLRKKGADLLWCNARTSASGYYKKLGFSEQGEVYDTPPVGPHILMYKKLT ; condition: Kcat strictly below 1 s⁻¹. Does it hold?
A: 0.0

Q: Input SEQ ID NO: 391: GAT polypeptide (protein, 6_19C8, GAT polypeptide) MIEVKPINAEDTYEIRHRILRPNQPLEACKYETDLLGGTLHLGGYYRGKLISIASFHQAEHPELEGQKQYQLRGMATLEGYREQKAGSTLIRQAEELLRKKGADLLWCNARTSASGYYKKLGFSEQGGVYDIPPVGPHILMYKELT ; condition: Kcat strictly below 1 s⁻¹. Does it hold?
A: 0.0
